Source: ChEMBL document CHEMBL3414455

# TARGET ENTITY: Quinolone resistance protein NorA (Staphylococcus aureus) (UniProt P0A0J7)
# ASSAY OVERVIEW: Inhibition of NorA in fluoroquinolone-resistant Staphylococcus aureus 1199B assessed as minimum modulatory concentration require to potentiate 16 ug/ml norfloxacin-induced antibacterial activity
METRIC: log10 of MMC (log10 of the value in µg/mL)
log10 MMC, µg/mL

QUERY SMILES: CCCCOc1ccc(B(O)O)cn1
log10 of MMC: 1.81
//
QUERY SMILES: OB(O)c1ccc(OCCCc2ccccc2)nc1
log10 of MMC: 0.90
//
QUERY SMILES: OB(O)c1ccc(OCCCCc2ccccc2)nc1
log10 of MMC: 0.90
//
QUERY SMILES: OB(O)c1ccc(SCc2ccccc2)nc1
log10 of MMC: 1.20
//
QUERY SMILES: Cc1cc(B(O)O)cnc1OCc1ccccc1
log10 of MMC: 0.90

Query: What is its log10 of MMC for Quinolone resistance protein NorA (Staphylococcus aureus) (UniProt P0A0J7)? Entry: OB(O)c1ccc(Oc2ccccc2)nc1
Result: 2.11

Query: What is its log10 of MMC for Quinolone resistance protein NorA (Staphylococcus aureus) (UniProt P0A0J7)? Entry: OB(O)c1ccc(OCc2ccccc2)nc1
Result: 1.51

Query: What is its log10 of MMC for Quinolone resistance protein NorA (Staphylococcus aureus) (UniProt P0A0J7)? Entry: CCCCCCOc1ccc(B(O)O)cn1
Result: 1.20

Query: What is its log10 of MMC for Quinolone resistance protein NorA (Staphylococcus aureus) (UniProt P0A0J7)? Entry: CCCCCOc1ccc(B(O)O)cn1
Result: 1.81

Query: What is its log10 of MMC for Quinolone resistance protein NorA (Staphylococcus aureus) (UniProt P0A0J7)? Entry: OB(O)c1ccc(OCc2ccc(F)cc2)nc1
Result: 1.81
